Each entry below lists one item and its recorded thermal stability score value.
- Test system: HeLa Kyoto
- experiment.description: thermal stability score vs G1/S (z-score of summed log2 fold changes over temperatures); higher = more thermally stable than in G1/S
- condition.summary: cell cycle stage: early G1 (4.5 h after nocodazole release)

monomer.sequence	thermal stability score
MAAQKINEGLEHLAKAEKYLKTGFLKWKPDYDSAASEYGKAAVAFKNAKQFEQAKDACLREAVAHENNRALFHAAKAYEQAGMMLKEMQKLPEAVQLIEKASMMYLENGTPDTAAMALERAGKLIENVDPEKAVQLYQQTANVFENEERLRQAVELLGKASRLLVRGRRFDEAALSIQKEKNIYKEIENYPTCYKKTIAQVLVHLHRNDYVAAERCVRESYSIPGFNGSEDCAALEQLLEGYDQQDQDQVSDVCNSPLFKYMDNDYAKLGLSLVVPGGGIKKKSPATPQAKPDGVTATAADEEEDEYSGGLC [NAPG]	-0.512
MMPSRTNLATGIPSSKVKYSRLSSTDDGYIDLQFKKTPPKIPYKAIALATVLFLIGAFLIIIGSLLLSGYISKGGADRAVPVLIIGILVFLPGFYHLRIAYYASKGYRGYSYDDIPDFDD [TMEM230]	-1.72

* * *

Each entry below lists one item and its recorded thermal stability score value.
- Test system: HeLa Kyoto;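 further: synchronized HeLa Kyoto cells, proteins quantified by TMT10plex mass spectrometry, three biological replicates, mitosis taken 0.5 h after nocodazole release, G1/S directly after double thymidine block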
- experiment.description: thermal stability score vs G1/S (z-score of summed log2 fold changes over temperatures); higher = more thermally stable than in G1/S
- condition.summary: cell cycle stage: early G1 (4.5 h after nocodazole release)

monomer.sequence	thermal stability score
MSGFSTEERAAPFSLEYRVFLKNEKGQYISPFHDIPIYADKDVFHMVVEVPRWSNAKMEIATKDPLNPIKQDVKKGKLRYVANLFPYKGYIWNYGAIPQTWEDPGHNDKHTGCCGDNDPIDVCEIGSKVCARGEIIGVKVLGILAMIDEGETDWKVIAINVDDPDAANYNDINDVKRLKPGYLEATVDWFRRYKVPDGKPENEFAFNAEFKDKDFAIDIIKSTHDHWKALVTKKTNGKGISCMNTTLSESPFKCDPDAARAIVDALPPPCESACTVPTDVDKWFHHQKN [PPA1]	0.184
MGRSRSRSSSRSKHTKSSKHNKKRSRSRSRSRDKERVRKRSKSRESKRNRRRESRSRSRSTNTAVSRRERDRERASSPPDRIDIFGRTVSKRSSLDEKQKREEEEKKAEFERQRKIRQQEIEEKLIEEETARRVEELVAKRVEEELEKRKDEIEREVLRRVEEAKRIMEKQLLEELERQRQAELAAQKAREEEERAKREELERILEENNRKIAEAQAKLAEEQLRIVEEQRKIHEERMKLEQERQRQQKEEQKIILGKGKSRPKLSFSLKTQD [ARGLU1]	-5.79
MSTKNFRVSDGDWICPDKKCGNVNFARRTSCNRCGREKTTEAKMMKAGGTEIGKTLAEKSRGLFSANDWQCKTCSNVNWARRSECNMCNTPKYAKLEERTGYGGGFNERENVEYIEREESDGEYDEFGRKKKKYRGKAVGPASILKEVEDKESEGEEEDEDEDLSKYKLDEDEDEDDADLSKYNLDASEEEDSNKKKSNRRSRSKSRSSHSRSSSRSSSPSSSRSRSRSRSRSSSSSQSRSRSSSRERSRSRGSKSRSSSRSHRGSSSPRKRSYSSSSSSPERNRKRSRSRSSSSGDRKKRRTRSRSPERRHRSSSGSSHSGSRSSSKKK [ZRANB2]	0.299

Cited source: the supplement of paper PMC5998384
